Hello, the source for this data is patent US9522923B2, in case you need it.

SYSTEM: human BACE1(1-460):Fc (Homo sapiens)
Sequence (P56817 22-460): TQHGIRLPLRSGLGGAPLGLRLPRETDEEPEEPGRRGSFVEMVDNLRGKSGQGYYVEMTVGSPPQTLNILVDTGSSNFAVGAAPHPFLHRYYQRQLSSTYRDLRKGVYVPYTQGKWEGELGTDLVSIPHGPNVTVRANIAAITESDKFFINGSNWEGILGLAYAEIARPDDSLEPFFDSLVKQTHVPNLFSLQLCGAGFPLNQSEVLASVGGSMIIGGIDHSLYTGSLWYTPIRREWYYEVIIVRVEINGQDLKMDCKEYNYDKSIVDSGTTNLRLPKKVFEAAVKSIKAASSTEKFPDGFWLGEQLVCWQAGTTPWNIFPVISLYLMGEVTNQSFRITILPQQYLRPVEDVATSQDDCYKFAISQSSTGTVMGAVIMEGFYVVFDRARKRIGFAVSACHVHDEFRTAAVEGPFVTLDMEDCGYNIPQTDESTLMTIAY
ASSAY_DETAILS: BACE1 FRET Assay
CONDITION_CONTEXT: purified recombinant huBACE1:Fc, FRET substrate based on APP; Mean±SEM 0.48, n=4
REPORTED_PROPERTY: pIC50
Lab note — pIC50 values are minus log10 of concentrations in M.

Record summary for CC(F)(F)[C@H]1OC[C@]2(c3cc(NC(=O)c4cnc(-n5cncn5)cn4)ccc3F)N=C(N)SC[C@H]12 [Example 1] : reported pIC50 = 8.92

====

SYSTEM: BACE1 (Homo sapiens, UniProt P56817)
Construct: endogenous in cells; host or cells: SH-SY5Y (ATCC CRL2266) stably expressing human APP695Wt
Sequence (P56817 46-501): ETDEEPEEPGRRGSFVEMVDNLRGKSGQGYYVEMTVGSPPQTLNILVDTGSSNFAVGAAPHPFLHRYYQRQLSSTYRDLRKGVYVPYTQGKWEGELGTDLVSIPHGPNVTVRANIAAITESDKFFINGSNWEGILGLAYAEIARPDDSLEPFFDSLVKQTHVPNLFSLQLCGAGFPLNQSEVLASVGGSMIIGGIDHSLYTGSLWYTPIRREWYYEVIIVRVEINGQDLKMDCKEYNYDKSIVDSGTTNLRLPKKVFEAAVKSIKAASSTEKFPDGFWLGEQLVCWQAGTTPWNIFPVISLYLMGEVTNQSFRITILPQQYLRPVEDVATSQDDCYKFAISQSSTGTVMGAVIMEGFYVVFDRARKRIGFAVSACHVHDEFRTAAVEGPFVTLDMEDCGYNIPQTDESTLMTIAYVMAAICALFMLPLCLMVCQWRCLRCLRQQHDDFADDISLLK
ASSAY_DETAILS: SH-SY5YAPP695Wt Whole Cell Assay (Abeta ELISA)
Type: cell-based
CONDITION_CONTEXT: 24 hours incubation, conditioned media; Mean ± SEM, n = 4; read-out: SH-SY5YAPP695Wt A-beta (1-42) ELISA IC50
REPORTED_PROPERTY: pIC50
Here pIC50 is given on a logarithmic scale as minus log10 of the concentration in mol/L.

Noted for CC(F)(F)[C@H]1OC[C@]2(c3cc(NC(=O)c4cnc(-n5cncn5)cn4)ccc3F)N=C(N)SC[C@H]12 [Example 1] : its pIC50 reads 9.42
